target: Cytochrome P450 2D6 (Homo sapiens) (UniProt P10635); assay: Cytochrome P450 Family 2 Subfamily D Member 6 (CYP2D6) small molecule antagonists: luciferase reporter qHTS assay (AID 1671196); conditions: P450-Glo CYP2D6 enzyme assay, luciferin luminescence, 1 h; series mostly up to 115 µM; note: nearly all actives have a fitted effect of over 50% in size
Sequence (P10635 whole entry, looked up): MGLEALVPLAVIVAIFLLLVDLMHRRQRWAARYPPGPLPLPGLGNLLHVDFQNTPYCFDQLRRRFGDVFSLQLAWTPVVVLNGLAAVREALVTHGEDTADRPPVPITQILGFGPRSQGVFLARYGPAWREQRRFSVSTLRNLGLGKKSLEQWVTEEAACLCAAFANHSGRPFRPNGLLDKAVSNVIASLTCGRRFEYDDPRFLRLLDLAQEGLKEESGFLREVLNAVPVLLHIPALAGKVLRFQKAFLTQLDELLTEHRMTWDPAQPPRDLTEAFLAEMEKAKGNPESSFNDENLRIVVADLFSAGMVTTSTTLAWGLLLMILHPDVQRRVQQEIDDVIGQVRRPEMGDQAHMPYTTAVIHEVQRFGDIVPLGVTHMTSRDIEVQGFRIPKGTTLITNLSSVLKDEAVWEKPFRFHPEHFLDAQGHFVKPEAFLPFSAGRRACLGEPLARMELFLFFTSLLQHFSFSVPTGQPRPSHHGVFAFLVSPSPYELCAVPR
Inconclusive results are not listed. The source made the active and inactive calls. Calls come from the whole dose curve; as a rule, active = well fitted inhibition curve with a large enough effect in the repeat runs; inconclusive = weak or mixed curves; inactive = no such curve, though single readings can be large or run the other way.
Use one of these outcomes when replying: T (active), F (inactive)

MOLECULE: CCN(CCO)CCn1c(Cc2ccccc2)nc2c1c(=O)n(C)c(=O)n2C
QUALITATIVE LABEL: F

Q: Which outcome was entered for the molecule CCN(CCO)CCO in this test?
A: F

Q: For CC(C)NCC(O)c1ccc([N+](=O)[O-])cc1 (configuration not stated) then?
A: T

Q: For CC(Cc1ccccc1)NCCn1cnc2c1c(=O)n(C)c(=O)n2C (configuration not stated) then?
A: T

Q: For CN=CNc1ccc(C)cc1C then?
A: F

Q: For C[N+]1(C)CCCCC1 then?
A: F

Q: For C#CC(C)(C)O then?
A: F

---

Biological target: Cytochrome P450 2D6 (Homo sapiens) (UniProt P10635)
Test: Cytochrome P450 Family 2 Subfamily D Member 6 (CYP2D6) small molecule antagonists: luciferase reporter qHTS assay (AID 1671196); note: nearly all actives have a fitted effect of over 50% in size
Details: P450-Glo CYP2D6 enzyme assay, luciferin luminescence, 1 h; series mostly up to 115 µM
Source text: U.S. Tox21 Program National Center for Advancing Translational Sciences [NCATS] U.S. Environmental Protection Agency [EPA] National Institutes of Environmental Health Sciences [NIEHS] National Toxicology Program [NTP] U.S. Food and Drug Administration [FDA] […] The luciferin products formed are detected with a luciferin detection reagent, and the amount of light produced is proportional to CYP activity. […]
Records with an inconclusive call do not appear. Active and inactive are the calls of the source. The call rests on the fitted dose curve; in most records, active means well fitted inhibition curve with a large enough effect in the repeat runs; inconclusive means weak or mixed curves; inactive means no such curve, though single readings can be large or run the other way.
Use one of these outcomes when replying: yes (active), no (inactive)

Illustrative cases are given below, each with its answer.
COMPOUND: CCN[C@@H](C)Cc1cccc(C(F)(F)F)c1
QUALITATIVE LABEL: yes
--
COMPOUND: CON(C)C(=O)Nc1ccc(Br)c(Cl)c1
QUALITATIVE LABEL: no
--
COMPOUND: COC(=O)[C@@H](N)CCCN/C(N)=N/[N+](=O)[O-]
QUALITATIVE LABEL: no

We now examine a further compound.
Q: Which outcome was entered for the compound C=CC1(C)OC(=O)N(c2cc(Cl)cc(Cl)c2)C1=O (centres undefined) in this test?
A: no

---

experiment: qHTS RealTime-Glo MT Cell Viability Assay in HEK293 cells - 16 hour (AID 1224872); settings: RealTime-Glo luminescence; series mostly up to 76.8 µM; note: nearly all actives have a fitted effect of over 50% in size
Records with an inconclusive call do not appear. Calls of active or inactive are those of the source. Calls follow the shape of the dose curve; as a rule, active = well fitted cell-killing curve with a large enough effect in the repeat runs; inconclusive = weak or mixed curves, or effect the other way; inactive = flat fitted curve, though single readings scatter.
Use one of these outcomes when replying: label 1 for active, label 0 for inactive

Illustrative cases are given below, each with its answer.
COMPOUND: O=C1C2CC=CCC2C(=O)N1SC(Cl)(Cl)Cl (stereo unspecified)
QUALITATIVE LABEL: label 1

COMPOUND: CCCN1CCC[C@@H]2Cc3nc(N)ncc3C[C@H]21
QUALITATIVE LABEL: label 0

COMPOUND: CCN[C@@H](C)Cc1ccccc1
QUALITATIVE LABEL: label 0

COMPOUND: CC(C)C(C)(N)C#N (stereo unspecified)
QUALITATIVE LABEL: label 0

COMPOUND: CC(Cc1ccccc1)NCCn1cnc2c1c(=O)n(C)c(=O)n2C (stereo unspecified)
QUALITATIVE LABEL: label 1

Q: Which outcome was entered for the compound CCN(CCO)CCn1c(Cc2ccccc2)nc2c1c(=O)n(C)c(=O)n2C in this test?
A: label 0

Hello, the source for this data is PubChem BioAssay (Tox21), in case you need it.
